- Test system: Staphylococcus aureus ATCC29213
- experimental_details: Minimum Inhibitory Concentration (MIC) testing, broth microdilution, Staphylococcus aureus
- Format: cell-based
- condition_notes: Staphylococcus aureus ATCC29213; read-out: Staphylococcus aureus MICs Activity
Collected MIC values appear next to each entry.

NC(=O)c1c(F)ccc(OCc2coc(-c3ccccc3)n2)c1F; < 8 µg/mL
CCCCCCCCCOc1ccc(Cl)c(C(N)=O)c1 [Example 68, 2-Chloro-5-(nonyloxy)benzenecarboxamide]; < 8 µg/mL
NC(=O)c1c(F)ccc(OCc2noc(-c3ccccc3)n2)c1F; 16 to 64 µg/mL
NC(=O)c1c(F)ccc(OCc2nc(-c3ccc(Cl)cc3)cs2)c1F; < 8 µg/mL
NC(=O)c1c(F)ccc(OCc2cc3ccccc3o2)c1F; 16 to 64 µg/mL

Data request: // fetch MIC for CCCCCCCCCOc1cccc(C(N)=O)c1 [Example 1, 3-Nonyloxy-benzenecarboxamide] ; system: Staphylococcus aureus ATCC29213
Data returned: < 8 µg/mL

Data request: // fetch MIC for "NC(=O)c1c(F)ccc(OCc2csc(-c3ccc(Cl)cc3)n2)c1F" ; system: Staphylococcus aureus ATCC29213
Data returned: < 8 µg/mL

Data request: // fetch MIC for "COc1ccc2nc(COc3ccc(F)c(C(N)=O)c3F)sc2c1" ; system: Staphylococcus aureus ATCC29213
Data returned: > 64 µg/mL

Data request: // fetch MIC for "Cc1nn(-c2ccccc2)nc1COc1ccc(F)c(C(N)=O)c1F" ; system: Staphylococcus aureus ATCC29213
Data returned: 16 to 64 µg/mL
